Target: NPY Y1 receptor (Homo sapiens)
Sequence (P25929 whole entry): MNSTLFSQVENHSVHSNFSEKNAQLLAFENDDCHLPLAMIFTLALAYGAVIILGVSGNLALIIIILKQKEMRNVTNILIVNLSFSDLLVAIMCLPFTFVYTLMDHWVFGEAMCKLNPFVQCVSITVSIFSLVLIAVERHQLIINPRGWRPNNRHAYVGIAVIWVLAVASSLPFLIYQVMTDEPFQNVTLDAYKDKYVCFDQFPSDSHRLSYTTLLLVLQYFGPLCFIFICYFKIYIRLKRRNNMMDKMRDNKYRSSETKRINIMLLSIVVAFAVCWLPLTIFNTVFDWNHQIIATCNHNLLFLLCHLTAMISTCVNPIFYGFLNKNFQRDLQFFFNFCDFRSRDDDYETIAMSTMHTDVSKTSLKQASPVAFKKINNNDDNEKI
Assay: biochemical
Format: binding
ASSAY METRIC: IC50

Memo: Ac-LRHYLNLLTRQRY-NH2 [Y2A, N-acetyl (Leu^28, Leu^31) NPY (24-36)] , reported IC50: > 5 µM
